Target sequence: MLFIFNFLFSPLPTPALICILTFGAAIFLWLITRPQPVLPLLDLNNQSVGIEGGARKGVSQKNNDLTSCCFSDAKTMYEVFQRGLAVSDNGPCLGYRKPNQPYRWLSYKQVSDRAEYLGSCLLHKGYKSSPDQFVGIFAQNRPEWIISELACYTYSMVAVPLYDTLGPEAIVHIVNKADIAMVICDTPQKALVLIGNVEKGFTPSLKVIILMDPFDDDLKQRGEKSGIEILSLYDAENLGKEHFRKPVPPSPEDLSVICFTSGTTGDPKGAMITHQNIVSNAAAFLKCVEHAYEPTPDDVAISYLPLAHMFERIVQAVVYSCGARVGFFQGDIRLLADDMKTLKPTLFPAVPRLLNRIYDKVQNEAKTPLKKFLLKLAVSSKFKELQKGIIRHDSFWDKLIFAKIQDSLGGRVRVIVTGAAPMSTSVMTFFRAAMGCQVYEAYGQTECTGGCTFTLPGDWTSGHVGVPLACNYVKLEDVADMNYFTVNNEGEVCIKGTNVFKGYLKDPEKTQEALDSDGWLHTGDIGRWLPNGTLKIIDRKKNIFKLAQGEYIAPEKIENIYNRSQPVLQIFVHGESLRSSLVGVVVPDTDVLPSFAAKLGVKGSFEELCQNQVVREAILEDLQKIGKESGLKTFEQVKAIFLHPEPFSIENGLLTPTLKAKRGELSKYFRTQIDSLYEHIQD
The source made the active and inactive calls.

| compound | Kd |
| --- | --- |
| CC(C)(O)CC(=O)NCCn1ccc2ncnc(Nc3ccc(Oc4cccc(C(F)(F)F)c4)c(Cl)c3)c21 | > 30 µM (inactive) |
| Cn1c(=O)n(-c2ccc(C(C)(C)C#N)cc2)c2c3cc(-c4cnc5ccccc5c4)ccc3ncc21 | > 30 µM (inactive) |
| COc1cc2c(N3CCN(C(=O)Nc4ccc(OC(C)C)cc4)CC3)ncnc2cc1OCCCN1CCCCC1 | > 30 µM (inactive) |
| CC1(C)CNc2cc(NC(=O)c3cccnc3NCc3ccncc3)ccc21 | > 30 µM (inactive) |
| c1cc(OCCN2CCCCC2)cc(-c2n[nH]c3ccc(-c4nc[nH]n4)cc23)c1 | > 30 µM (inactive) |
| CC1(COc2ccc3c(c2)ncn3-c2ccc3cccc(N4CCC(N)CC4)c3n2)COC1 | > 30 µM (inactive) |
| Cc1cc(-c2cc(OC(=O)c3ccccc3)ccc2Cl)cc2nnc(Nc3ccc(OCCN4CCCC4)cc3)nc12 | > 30 µM (inactive) |
| COc1cc2nccc(Oc3ccc(NC(=O)C4(C(=O)Nc5ccc(F)cc5)CC4)cc3)c2cc1OC [CABOZANTINIB] | > 30 µM (inactive) |
| COCCN1CCN(Cc2ccc(-c3n[nH]c4c3C(=O)c3c(NC(=O)NN5CCOCC5)cccc3-4)cc2)CC1 | > 30 µM (inactive) |
| O=S(=O)(c1cccc2cnccc12)N1CCCNCC1 | > 30 µM (inactive) |
| C[C@@H]1COC(Nc2ccc3ncnc(Nc4ccc(OCc5nccs5)c(Cl)c4)c3c2)=N1 | > 30 µM (inactive) |
| CNC(=O)c1cc(COc2nnc(Nc3ccc(Cl)cc3)c3ccoc23)ccn1 | > 30 µM (inactive) |
| CCc1nc(C(N)=O)c(Nc2ccc(N3CCC(N4CCN(C)CC4)CC3)c(OC)c2)nc1NC1CCOCC1 | 0.208 µM |
| CN(c1ncccc1CNc1nc(Nc2ccc3c(c2)CC(=O)N3)ncc1C(F)(F)F)S(C)(=O)=O | > 30 µM (inactive) |
| COc1cc2ncnc3c2cc1OCCCCCN(C)Cc1ccc(Br)cc1N3 | > 30 µM (inactive) |
| CCOc1ccn(-c2ccc(F)cc2)c(=O)c1C(=O)Nc1ccc(Oc2ccnc(N)c2Cl)c(F)c1 | > 30 µM (inactive) |
| NC[C@@](O)(c1ccc(Cl)cc1)c1ccc(-c2cn[nH]c2)cc1 | > 30 µM (inactive) |
